- assay.notes: in vivo
- conditions.used: mouse, oral, mice, aqueous solution
Structures can show the parent of a compound that is named as a salt.
observed.property: LD50

Req: // LD50 lookup, key: CC1(C)S[C@@H]2[C@H](NC(=O)[C@H](N)c3ccccc3)C(=O)N2[C@H]1C(=O)OCc1oc(=O)oc1-c1ccccc1 [B, hydrochloride]
Resp: > 5000 mg/kg

====

- assay.notes: in vitro
- Format: in vitro ADME
- conditions.used: simulated intestinal juice, pH 7.5
Where a name gives a salt, the structure may show the parent alone.
observed.property: metabolised at 20 min

- molecule: "CC1(C)S[C@@H]2[C@H](NC(=O)[C@H](N)c3ccccc3)C(=O)N2[C@H]1C(=O)OCc1oc(=O)oc1-c1ccccc1 [B, hydrochloride]"
  metabolised at 20 min: "53%"
- molecule: "CC1(C)S[C@@H]2[C@H](NC(=O)[C@H](N)c3ccccc3)C(=O)N2[C@H]1C(=O)OC1OC(=O)c2ccccc21 (stereo partly drawn) [C, hydrochloride, reference compound]"
  metabolised at 20 min: "90%"

Req: // metabolised at 20 min lookup, key: Cc1oc(=O)oc1COC(=O)[C@@H]1N2C(=O)[C@@H](NC(=O)[C@H](N)c3ccccc3)[C@H]2SC1(C)C [A, hydrochloride]
Resp: 48%
